Let's look at some compounds and their measured whole-cell filipin (z-score).
# Tested on: A431
# protocol.summary: whole-cell filipin (free cholesterol) integrated intensity, Z-score; higher = more cholesterol staining
# conditions: compound concentration in added solution (µM; 5 µl added to 20 µl cells): 10; 18 h
Structures can show the parent of a compound that is named as a salt.
Keep the answer to the number alone.

Before answering, review these 5 worked examples.
{"columns": ["compound", "target.desc", "whole-cell filipin (z-score)"],
 "data": [
  ["C=CCN1CCCC1CNC(=O)c1cc2nn[nH]c2cc1OC (centres undefined) [Alizapride HCl]", "A431", -0.622],
  ["CN(C/C=C/c1ccccc1)Cc1cccc2ccccc12 [Naftifine hydrochloride]", "A431", 0.224],
  ["CCCCNc1ccc(C(=O)OCCN(C)C)cc1 [Tetraca? hydrochloride]", "A431", -0.403],
  ["Clc1ccccc1CN1CCc2sccc2C1 [Ticlopidine hydrochloride]", "A431", -0.834],
  ["CC(C)NC[C@H](O)COc1cccc2ccccc12 [(S)-propranolol hydrochloride]", "A431", 0.666]
]}

// next entry
Fill in: A431 whole-cell filipin (z-score) for CCOC(=O)[C@H](CCc1ccccc1)N[C@@H](C)C(=O)N1Cc2ccccc2C[C@H]1C(=O)O [Quinapril HCl] = -0.267

----------
# Tested on: HeLa MZ
# protocol.summary: filipin (cholesterol) integrated intensity within LBPA endosomes, Z-score; higher = more cholesterol in LBPA endosomes
# conditions: compound concentration in added solution (µM; 5 µl added to 20 µl cells): 10; 18 h
Structures can show the parent of a compound that is named as a salt.
readout.type: filipin (z-score)
Keep the answer to the number alone.

Before answering, review these 6 worked examples.
{"columns": ["molecule", "target.desc", "filipin (z-score)"],
 "data": [
  ["CC(=O)OCC(=O)[C@@]12OC(C)(C)O[C@@H]1C[C@H]1[C@@H]3C[C@H](F)C4=CC(=O)C=C[C@]4(C)[C@@]3(F)[C@@H](O)C[C@@]12C [Fluocinonide]", "HeLa MZ", -0.49],
  ["c1ccc(C2CN3CCSC3=N2)cc1 (configuration not stated) [Tetramisole hydrochloride]", "HeLa MZ", -0.156],
  ["Nc1nc2ccc(OC(F)(F)F)cc2s1 [Riluzole hydrochloride]", "HeLa MZ", -0.474],
  ["CCCCC[C@H](O)/C=C/[C@H]1[C@H](O)CC(=O)[C@@H]1CCCCCCC(=O)O", "HeLa MZ", -0.34],
  ["CN[C@@H]1[C@H](O[C@H]2[C@H](O[C@H]3[C@H](O)[C@@H](O)[C@H](NC(=N)N)[C@@H](O)[C@@H]3NC(=N)N)O[C@@H](C)[C@]2(O)CO)O[C@@H](CO)[C@H](O)[C@H]1O [Dihydrostreptomycin sulfate]", "HeLa MZ", -0.704],
  ["COc1ccccc1Oc1c(NS(=O)(=O)c2ccc(C(C)(C)C)cc2)nc(-c2ncccn2)nc1OCCO", "HeLa MZ", -0.438]
]}

// next entry
Sample CNNCc1ccc(C(=O)NC(C)C)cc1 [Procarbazine hydrochloride] ; filipin (z-score) observed: -0.664

----------
# System: HeLa MZ
# protocol.summary: LBPA endosome anti-LBPA integrated intensity (sum per cell), Z-score; higher = more LBPA staining
# conditions: compound concentration in added solution (µM; 5 µl added to 20 µl cells): 10; 18 h
Counter-ions that a name gives are not always drawn.
readout.type: LBPA endosome anti-LBPA integrated intensity (z-score)
Keep the answer to the number alone.

Before answering, review these 5 worked examples.
{"columns": ["molecule", "target.desc", "observed"],
 "data": [
  ["CC(C)(C(=O)c1cccnc1)c1cccnc1", "HeLa MZ", -0.575],
  ["CN(C(=O)C(Cl)Cl)c1ccc(OC(=O)c2ccco2)cc1 [Diloxanide furoate]", "HeLa MZ", -0.529],
  ["CC(=O)/N=c1/sc(S(N)(=O)=O)nn1C [Methazolamide]", "HeLa MZ", -1.23],
  ["Nc1c2c(nc3ccccc13)CCCC2 [Tacrine hydrochloride]", "HeLa MZ", 0.705],
  ["CC(=O)CC(c1ccccc1)c1c(O)c2ccccc2oc1=O (centres undefined)", "HeLa MZ", 0.393]
]}

Sample O=C(O)c1cn(C2CC2)c2cc(N3CCNCC3)c(F)cc2c1=O [Ciprofloxacin hydrochloride hydrate] ; LBPA endosome anti-LBPA integrated intensity (z-score) observed: -0.847

Sample `C/C(=C(\CCOP(=O)(O)O)SC(=O)c1ccccc1)N(C=O)Cc1cnc(C)nc1N` ; LBPA endosome anti-LBPA integrated intensity (z-score) observed: -0.653

Sample CC(C)(Oc1ccc(CCNC(=O)c2ccc(Cl)cc2)cc1)C(=O)O [Bezafibrate] ; LBPA endosome anti-LBPA integrated intensity (z-score) observed: -0.597

Sample `CCOc1ccc(NC(C)=O)cc1` ; LBPA endosome anti-LBPA integrated intensity (z-score) observed: -0.322

----------
# Tested on: A431
# protocol.summary: filipin (cholesterol) integrated intensity within LBPA endosomes, Z-score; higher = more cholesterol in LBPA endosomes
# conditions: compound concentration in added solution (µM; 5 µl added to 20 µl cells): 10; 18 h
Structures can show the parent of a compound that is named as a salt.
Lab note: compare filipin (z-score) against -0.5. Equal or greater, write label 1. Smaller, write label 0.

Examples from the recorded data:
{"columns": ["molecule", "classification"],
 "data": [
  ["N=C(N)N/N=C/c1c(Cl)cccc1Cl [Guanabenz acetate]", "label 1"],
  ["CC(C(=O)O)c1cccc(C(=O)c2ccccc2)c1 (stereo not drawn) [Ketoprofen]", "label 0"],
  ["C=CC[N@@+]12CC[C@@]34c5ccccc5N5/C=C6/[C@H]7C[C@H]8[C@@]9(CC[N@@+]8(CC=C)C/C7=C/CO)c7ccccc7N(/C=C(/[C@@H](C[C@@H]31)/C(=C\\CO)C2)[C@H]54)[C@@H]69 [Alcuronium chloride]", "label 1"],
  ["CC(CNC1CCCCC1)OC(=O)c1ccccc1 (stereo not drawn) [Hexylcaine hydrochloride]", "label 1"],
  ["CC1=C(CC(=O)O)c2cc(F)ccc2/C1=C\\c1ccc([S+](C)[O-])cc1 (stereo not drawn) [Sulindac]", "label 0"],
  ["COc1ccccc1OCC(O)CO (stereo not drawn) [Guaifenesin]", "label 1"]
]}

Continue with the next molecule.
Does the molecule Nc1nc2n[nH]nc2c(=O)[nH]1 [Azaguanine-8] have recorded filipin (z-score) that is -0.5 or more?
label 1

----------
# Tested on: A431
# protocol.summary: filipin (cholesterol) integrated intensity within LBPA endosomes, Z-score; higher = more cholesterol in LBPA endosomes
# conditions: compound concentration in added solution (µM; 5 µl added to 20 µl cells): 10; 18 h
Where a name gives a salt, the structure may show the parent alone.
Let's look at some compounds and their measured filipin (z-score).
Keep the answer to the number alone.

Before answering, review these 3 worked examples.
{"columns": ["compound", "filipin (z-score)"],
 "data": [
  ["CC[C@H]1OC(=O)C[C@@H](O)[C@H](C)[C@@H](O[C@@H]2O[C@H](C)[C@@H](O[C@H]3C[C@@](C)(O)[C@@H](O)[C@H](C)O3)[C@H](N(C)C)[C@H]2O)[C@@H](CC=O)C[C@@H](C)C(=O)/C=C/C(C)=C/[C@@H]1CO[C@@H]1O[C@H](C)[C@@H](O)[C@@H](OC)[C@H]1OC [Tylosin]", -0.399],
  ["C=CCOc1ccccc1OCC(O)CNC(C)C (stereo not drawn) [Oxprenolol hydrochloride]", -0.232],
  ["CN[C@@H]1[C@H](O)[C@H](NC)[C@H]2O[C@@]3(O)C(=O)C[C@@H](C)O[C@H]3O[C@@H]2[C@H]1O [Spectinomycin dihydrochloride]", -0.451]
]}

Sample CC(C[N+](C)(C)C)OC(N)=O (stereo not drawn) [Bethanechol chloride] ; filipin (z-score) observed: -0.415

----------
# System: A431
# protocol.summary: whole-cell filipin (free cholesterol) integrated intensity, Z-score; higher = more cholesterol staining
# conditions: compound concentration in added solution (µM; 5 µl added to 20 µl cells): 10; 18 h
Structures can show the parent of a compound that is named as a salt.
Lab note: compare whole-cell filipin (z-score) against -0.7. Equal or greater, write y. Smaller, write n.

{"columns": ["compound", "classification"],
 "data": [
  ["COc1ccc2cc([C@H](C)C(=O)O)ccc2c1 [Naproxen]", "n"],
  ["CO[C@@]1(NC(=O)C2SC(=C(C(N)=O)C(=O)O)S2)C(=O)N2C(C(=O)O)=C(CSc3nnnn3C)CS[C@@H]21 (some centres undefined) [Cefotetan]", "n"],
  ["CNCCC=C1c2ccccc2CCc2ccccc21 [Nortriptyline hydrochloride]", "y"],
  ["COc1nc(C)nc(Cl)c1NC1=NCCN1 [Moxonidine]", "y"],
  ["CCCCc1oc2ccccc2c1C(=O)c1cc(I)c(OCCN(CC)CC)c(I)c1 [Amiodarone hydrochloride]", "y"],
  ["Cn1c(=O)c2c(ncn2CC(=O)O)n(C)c1=O [Acefylline]", "y"],
  ["C[N+]1(CCCCC[N+]2(C)CCCC2)CCCC1 [Pentolinium bitartrate]", "y"]
]}

Does the compound COc1ccc2c(c1)c(CC(=O)OCC(=O)O)c(C)n2C(=O)c1ccc(Cl)cc1 [Acemetacin] have recorded whole-cell filipin (z-score) that is -0.7 or more?
n
